Tested on: PBMC
Test method notes: Cytotoxicity against human PBMC assessed as reduction in cell viability by XTT assay
Assay type: cell-based

# Compound, CC50
data = [
    ("CCCCCCCCCCSSCCOP(=O)(O)CO[C@H](C)Cn1cnc2c(N)ncnc21", "> 50 µM"),
    ("C[C@H](Cn1cnc2c(N)ncnc21)OCP(=O)(O)OCCSSCCO", "> 100 µM"),
    ("C[C@H](Cn1cnc2c(N)ncnc21)OCP(=O)(O)O [TENOFOVIR ANHYDROUS]", "> 100 µM"),
]

Where do the numbers come from? From ChEMBL document CHEMBL4477226.
